Molecular target: Rat CB1 (Rattus norvegicus, UniProt P20272)
Construct: membrane fractions prepared from rat brain homogenate expressing CB1 receptor; from tissue; host or cells: rat brain homogenate
Sequence (P20272 whole entry): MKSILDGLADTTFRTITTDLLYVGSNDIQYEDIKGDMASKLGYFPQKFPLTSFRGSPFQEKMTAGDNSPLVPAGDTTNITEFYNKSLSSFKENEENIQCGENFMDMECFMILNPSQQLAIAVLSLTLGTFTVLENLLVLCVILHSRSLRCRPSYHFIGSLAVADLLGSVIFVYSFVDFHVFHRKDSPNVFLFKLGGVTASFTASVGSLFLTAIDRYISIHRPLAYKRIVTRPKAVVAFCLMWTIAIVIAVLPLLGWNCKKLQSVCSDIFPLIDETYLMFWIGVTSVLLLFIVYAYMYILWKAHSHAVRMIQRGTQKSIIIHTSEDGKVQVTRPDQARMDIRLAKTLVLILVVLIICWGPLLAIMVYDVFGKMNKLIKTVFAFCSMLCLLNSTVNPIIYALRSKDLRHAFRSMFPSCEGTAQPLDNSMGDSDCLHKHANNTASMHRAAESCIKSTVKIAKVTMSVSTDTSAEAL
Assay: Radioligand competitive binding, [3H]CP55940, rat brain homogenate
Conditions: ligand 10 μM; rat brain homogenates
Is Rat CB1 (%) primary radioligand competitive binding at least 70%? Then Yes. If not, No.

Does Rat CB1 (%) primary radioligand competitive binding meet or surpass 70% for "CCCCCn1c2c(c3ccc(OC)cc31)CN(C(=O)c1ccccc1)CC2" ? No

Does Rat CB1 (%) primary radioligand competitive binding meet or surpass 70% for "CCCCCn1c2c(c3ccccc31)C[C@@H](C(=O)N1CCCCC1)NC2" ? Yes

Does Rat CB1 (%) primary radioligand competitive binding meet or surpass 70% for "CCCCCn1c2ccccc2c2cc(C(=O)NCCc3ccc(Cl)cc3)ccc21" ? No

Does Rat CB1 (%) primary radioligand competitive binding meet or surpass 70% for "CCCCCn1c2c(c3ccccc31)C[C@H](C(=O)N1CCCCC1)NC2" ? Yes

With those in mind, consider the next compound.
Does Rat CB1 (%) primary radioligand competitive binding meet or surpass 70% for "CCCCCn1c2ccc(C(=O)N3CCCCC3)cc2c2ccc(OC)cc21" ? Yes

* * *

Molecular target: Human CB2 (Homo sapiens, UniProt P34972)
Sequence (P34972 whole entry): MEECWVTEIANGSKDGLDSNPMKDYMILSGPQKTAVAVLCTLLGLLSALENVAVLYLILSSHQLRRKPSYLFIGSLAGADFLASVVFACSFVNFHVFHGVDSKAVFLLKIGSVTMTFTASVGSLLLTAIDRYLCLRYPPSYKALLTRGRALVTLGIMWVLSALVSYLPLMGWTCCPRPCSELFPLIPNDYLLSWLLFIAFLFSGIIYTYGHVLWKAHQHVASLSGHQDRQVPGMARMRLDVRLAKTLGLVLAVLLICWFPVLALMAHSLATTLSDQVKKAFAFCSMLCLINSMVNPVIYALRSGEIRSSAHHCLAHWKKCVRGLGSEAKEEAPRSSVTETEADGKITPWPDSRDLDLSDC
Assay: GTPγ[35S] functional assay, CHO cell membrane extracts
Assay type: biochemical
Parameters: expressed in transfected cells; host or cells: CHO cells (membrane extracts)
Conditions: read-out: GTPγ[35S] functional assays Human CB2 Emax
experimental readout: Emax

Field: example entries. Status: answers known.
Entry "CCCCCn1c2ccc(C(=O)N3CCCCC3)cc2c2ccc(OC)cc21" has what Emax? -76.4%

Entry "CCCCCn1c2c(c3ccc(OC)cc31)CN(C(=O)c1ccccc1)CC2" has what Emax? -48.1%

Entry "CCCCCn1c2ccccc2c2cc(C(=O)N3CCCCC3)ccc21" has what Emax? 30.8%

Proceed to the following item.
Entry "CCCCCn1c2c(c3ccccc31)C[C@@H](C(=O)N1CCCCC1)NC2" has what Emax? 51.9%

* * *

# Human CB2 (%) primary radioligand competitive binding per record follows
Target: Human CB2 (Homo sapiens, UniProt P34972)
Test: Radioligand competitive binding, [3H]CP55940, HEK293 cells
Parameters: expressed in transfected cells
Conditions: ligand 10 μM; HEK293 cells
Numbers only here, please. The scale is %.

Field: example entries. Status: answers known.
Entry CCCCCn1c2c(c3ccccc31)C[C@@H](C(=O)N1CCCCC1)NC2 [NMP-141] has what Human CB2 (%) primary radioligand competitive binding? 88.7

Entry CCCCCn1c2ccc(C(=O)N3CCCCC3)cc2c2ccc(OC)cc21 [NMP-4] has what Human CB2 (%) primary radioligand competitive binding? 104.4

More entries:
Entry CCCCCn1c2c(c3ccc(OC)cc31)CN(C(=O)c1ccccc1)CC2 [NMP-144] has what Human CB2 (%) primary radioligand competitive binding? 90.6

Entry CCCCCn1c2c(c3ccccc31)C[C@H](C(=O)N1CCCCC1)NC2 [NMP-140] has what Human CB2 (%) primary radioligand competitive binding? 71.1

* * *

Target: human 5-HT2A (Homo sapiens, UniProt P28223)
Construct: expressed in transfected cells; host or cells: HEK293 (Flp-In system, pcDNA5.0FRT)
Sequence (P28223 whole entry): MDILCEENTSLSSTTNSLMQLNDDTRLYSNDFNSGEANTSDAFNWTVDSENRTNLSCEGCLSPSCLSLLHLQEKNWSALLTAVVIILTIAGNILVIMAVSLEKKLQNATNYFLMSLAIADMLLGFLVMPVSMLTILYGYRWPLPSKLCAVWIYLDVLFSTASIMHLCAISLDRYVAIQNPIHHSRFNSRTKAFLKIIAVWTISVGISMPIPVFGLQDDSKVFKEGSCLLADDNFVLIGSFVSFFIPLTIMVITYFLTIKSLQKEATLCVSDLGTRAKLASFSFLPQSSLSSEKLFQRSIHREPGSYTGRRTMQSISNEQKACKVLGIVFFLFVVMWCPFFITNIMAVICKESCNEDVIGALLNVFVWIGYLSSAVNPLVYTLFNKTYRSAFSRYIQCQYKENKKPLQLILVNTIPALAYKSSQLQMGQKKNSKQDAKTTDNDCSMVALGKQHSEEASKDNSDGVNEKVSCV
Experiment: Primary radioligand competitive binding assay, [3H]ketanserin
Details: ligand 10 μM, HEK293 cells
# Human 5-HT2A (%) primary radioligand competitive binding per record follows
Quick note: number first, unit second.

Field: example entries. Status: answers known.
Entry "CCCCCn1c2c(c3ccc(OC)cc31)CN(C(=O)c1ccccc1)CC2" has what Human 5-HT2A (%) primary radioligand competitive binding? -5.2%

Entry "CCCCCn1c2c(c3ccccc31)C[C@H](C(=O)N1CCCCC1)NC2" has what Human 5-HT2A (%) primary radioligand competitive binding? 11.2%

Entry "CCCCCn1c2ccc(C(=O)N3CCCCC3)cc2c2ccc(OC)cc21" has what Human 5-HT2A (%) primary radioligand competitive binding? 23.9%

Entry "CCCCCn1c2ccccc2c2cc(C(=O)NCCc3ccc(Cl)cc3)ccc21" has what Human 5-HT2A (%) primary radioligand competitive binding? 7.7%

Proceed to the following item.
Entry "CCCCCn1c2c(c3ccccc31)C[C@@H](C(=O)N1CCCCC1)NC2" has what Human 5-HT2A (%) primary radioligand competitive binding? 11.9%

* * *

# Ki per record follows
Target: Human CB2 (Homo sapiens, UniProt P34972)
Test: Radioligand competitive binding, [3H]CP55940, HEK293 cells
Set-up: expressed in transfected cells
Conditions: NA: not active at 1 μM; read-out: Mean Ki Human CB2
Numbers only here, please. The scale is nM.

Entry CCCCCn1c2ccc(C(=O)N3CCCCC3)cc2c2ccc(OC)cc21 [NMP-4] has what Ki? 7.5

Entry CCCCCn1c2c(c3ccccc31)C[C@H](C(=O)N1CCCCC1)NC2 [NMP-140] has what Ki? 2870

Entry CCCCCn1c2c(c3ccccc31)C[C@@H](C(=O)N1CCCCC1)NC2 [NMP-141] has what Ki? 481

More entries:
Entry CCCCCn1c2ccccc2c2cc(C(=O)NCCc3ccc(Cl)cc3)ccc21 [NMP-139] has what Ki? 3590
